All figures here come from paper PMC12652222.

I'd appreciate it if you could supply Proteinase Inhibition (%) values for the items below.
# Tested on: proteinase enzyme
# TEST_NAME: Proteinase inhibition (anti-arthritic)
# Format: biochemical
# Parameters: concentration or dose not given beside the values
# CONDITIONS_USED: mean ± SE, n = 3
Write the number in % without appending the unit.

query: Dear colleague, I am looking for the recorded Proteinase Inhibition (%) of the following compound: O=c1/c(=C\[C@@H](O)[C@H](O)[C@H](O)CO)sc2nc3sc4c(c3c(=O)n12)CCCC4
result: 50.90

query: Next up: O=c1/c(=C\[C@H](O)[C@@H](O)[C@@H](O)[C@H](O)CO)sc2nc3sc4c(c3c(=O)n12)CCCC4
result: 6.18

query: Next up: O=C(O)Cc1ccccc1Nc1c(Cl)cccc1Cl [Diclofenac sodium, reference compound]
result: 56.57

query: Next up: O=c1/c(=C\[C@H](O)[C@@H](O)[C@H](O)CO)sc2nc3sc4c(c3c(=O)n12)CCC4
result: 9.65

* * *

# TEST_NAME: Nitric oxide (NO) radical scavenging
# Type: biochemical
# CONDITIONS_USED: mean ± SE, n = 3
Mark Y only when NO radical scavenging IC50 stays strictly below 30 mg/L. Values equal to the cut-off are N.

query: Problem: For the molecule O=c1/c(=C\[C@H](O)[C@@H](O)[C@@H](O)[C@H](O)CO)sc2nc3sc4c(c3c(=O)n12)CCCC4 , is NO radical scavenging IC50 under 30 mg/L?
result: N

query: Next up: O=c1/c(=C\[C@H](O)[C@@H](O)[C@@H](O)[C@H](O)CO)sc2nc3sc4c(c3c(=O)n12)CCC4
result: N

query: Next up: O=c1/c(=C\[C@@H](O)[C@@H](O)[C@H](O)[C@H](O)CO)sc2nc3sc4c(c3c(=O)n12)CCCC4
result: Y

query: Next up: O=c1/c(=C\[C@@H](O)[C@H](O)[C@H](O)CO)sc2nc3sc4c(c3c(=O)n12)CCCC4
result: Y

query: Next up: O=c1/c(=C\[C@H](O)[C@@H](O)[C@H](O)[C@H](O)CO)sc2nc3sc4c(c3c(=O)n12)CCC4
result: N

query: Next up: O=c1/c(=C\[C@H](O)[C@@H](O)[C@H](O)[C@H](O)CO)sc2nc3sc4c(c3c(=O)n12)CCCC4
result: N

query: Next up: O=c1/c(=C\[C@H](O)[C@@H](O)[C@H](O)CO)sc2nc3sc4c(c3c(=O)n12)CCC4
result: N

query: Next up: O=c1/c(=C\[C@@H](O)[C@@H](O)[C@H](O)[C@H](O)CO)sc2nc3sc4c(c3c(=O)n12)CCC4
result: N

query: Next up: O=c1/c(=C\[C@@H](O)[C@H](O)[C@H](O)CO)sc2nc3sc4c(c3c(=O)n12)CCC4
result: N

query: Next up: O=c1/c(=C\[C@H](O)[C@@H](O)[C@H](O)CO)sc2nc3sc4c(c3c(=O)n12)CCCC4
result: N

query: Next up: O=C1O[C@H]([C@@H](O)CO)C(O)=C1O [ascorbic acid, reference compound]
result: Y

* * *

# TEST_NAME: DPPH radical scavenging
# Type: biochemical
# CONDITIONS_USED: mean ± SE, n = 3
I'd appreciate it if you could supply DPPH radical scavenging IC50 values for the items below.
Write the number in µg/mL without appending the unit.

query: Dear colleague, I am looking for the recorded DPPH radical scavenging IC50 of the following compound: O=c1/c(=C\[C@H](O)[C@@H](O)[C@H](O)CO)sc2nc3sc4c(c3c(=O)n12)CCC4 [7d]
result: 23.28

query: Next up: O=c1/c(=C\[C@H](O)[C@@H](O)[C@H](O)[C@H](O)CO)sc2nc3sc4c(c3c(=O)n12)CCCC4 [8a]
result: 36.82

query: Next up: O=C1O[C@H]([C@@H](O)CO)C(O)=C1O [ascorbic acid, reference compound]
result: 5.45

query: Next up: O=c1/c(=C\[C@@H](O)[C@H](O)[C@H](O)CO)sc2nc3sc4c(c3c(=O)n12)CCC4 [7e]
result: 25.27

* * *

I'd appreciate it if you could supply inhibition at 20 µg/mL values for the items below.
# SYSTEM_UNDER_TEST: acetylcholinesterase (AChE) (Homo sapiens)
# Sequence (P22303 32-614, species assumed): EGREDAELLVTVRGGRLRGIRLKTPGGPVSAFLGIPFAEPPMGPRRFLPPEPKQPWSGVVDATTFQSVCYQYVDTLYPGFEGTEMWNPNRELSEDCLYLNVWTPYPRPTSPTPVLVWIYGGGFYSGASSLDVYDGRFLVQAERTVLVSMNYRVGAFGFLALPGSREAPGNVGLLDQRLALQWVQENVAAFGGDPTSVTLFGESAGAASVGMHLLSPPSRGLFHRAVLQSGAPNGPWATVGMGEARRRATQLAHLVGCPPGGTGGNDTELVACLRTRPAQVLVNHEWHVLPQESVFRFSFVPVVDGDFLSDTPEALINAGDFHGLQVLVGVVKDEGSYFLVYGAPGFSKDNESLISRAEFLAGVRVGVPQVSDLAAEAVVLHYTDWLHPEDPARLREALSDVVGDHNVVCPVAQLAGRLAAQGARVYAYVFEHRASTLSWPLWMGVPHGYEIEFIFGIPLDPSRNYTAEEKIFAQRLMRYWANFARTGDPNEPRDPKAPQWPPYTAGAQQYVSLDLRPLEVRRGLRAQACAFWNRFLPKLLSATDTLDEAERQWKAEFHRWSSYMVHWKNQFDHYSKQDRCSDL
# TEST_NAME: biochemical
# CONDITIONS_USED: at 20 µg/mL; mean ± SE, n = 3
Write the number in % without appending the unit.

query: Dear colleague, I am looking for the recorded inhibition at 20 µg/mL of the following molecule: O=c1/c(=C\[C@H](O)[C@@H](O)[C@H](O)CO)sc2nc3sc4c(c3c(=O)n12)CCCC4
result: 5.61

query: Next up: O=c1/c(=C\[C@H](O)[C@@H](O)[C@H](O)[C@H](O)CO)sc2nc3sc4c(c3c(=O)n12)CCCC4
result: 5.81

query: Next up: O=c1/c(=C\[C@@H](O)[C@H](O)[C@H](O)CO)sc2nc3sc4c(c3c(=O)n12)CCC4
result: 4.11

query: Next up: O=c1/c(=C\[C@H](O)[C@@H](O)[C@@H](O)[C@H](O)CO)sc2nc3sc4c(c3c(=O)n12)CCC4
result: 5.87

query: Next up: O=c1/c(=C\[C@@H](O)[C@@H](O)[C@H](O)[C@H](O)CO)sc2nc3sc4c(c3c(=O)n12)CCC4
result: 5.14

query: Next up: O=c1/c(=C\[C@@H](O)[C@H](O)[C@H](O)CO)sc2nc3sc4c(c3c(=O)n12)CCCC4
result: 5.24

* * *

# TEST_NAME: Hydroxyl (OH) radical scavenging
# Assay type: biochemical
# CONDITIONS_USED: inhibition % at 20 µg/mL; mean ± SE, n = 3
MEASURED_ENDPOINT: OH (%)
Show the value, then the unit it is measured in.

query: Dear colleague, I am looking for the recorded OH (%) of the following compound: O=c1/c(=C\[C@H](O)[C@@H](O)[C@@H](O)[C@H](O)CO)sc2nc3sc4c(c3c(=O)n12)CCC4
result: 9.78 ± 0.22%

query: Next up: O=c1/c(=C\[C@H](O)[C@@H](O)[C@H](O)[C@H](O)CO)sc2nc3sc4c(c3c(=O)n12)CCCC4
result: 4.17 ± 0.15%

query: Next up: O=c1/c(=C\[C@H](O)[C@@H](O)[C@H](O)CO)sc2nc3sc4c(c3c(=O)n12)CCCC4
result: 6.84 ± 0.19%

query: Next up: O=c1/c(=C\[C@@H](O)[C@@H](O)[C@H](O)[C@H](O)CO)sc2nc3sc4c(c3c(=O)n12)CCC4
result: 10.82 ± 0.21%

query: Next up: O=c1/c(=C\[C@H](O)[C@@H](O)[C@@H](O)[C@H](O)CO)sc2nc3sc4c(c3c(=O)n12)CCCC4
result: 5.87 ± 0.17%

query: Next up: O=c1/c(=C\[C@@H](O)[C@H](O)[C@H](O)CO)sc2nc3sc4c(c3c(=O)n12)CCC4
result: 8.37 ± 0.19%

query: Next up: O=c1/c(=C\[C@H](O)[C@@H](O)[C@H](O)[C@H](O)CO)sc2nc3sc4c(c3c(=O)n12)CCC4
result: 7.21 ± 0.19%

query: Next up: O=c1/c(=C\[C@H](O)[C@@H](O)[C@H](O)CO)sc2nc3sc4c(c3c(=O)n12)CCC4
result: 9.51 ± 0.20%

* * *

# TEST_NAME: ABTS radical scavenging
# Assay type: biochemical
# CONDITIONS_USED: inhibition % at 20 µg/mL; mean ± SE, n = 3
I'd appreciate it if you could supply ABTS (%) values for the items below.
Write the number in % without appending the unit.

query: Dear colleague, I am looking for the recorded ABTS (%) of the following compound: O=c1/c(=C\[C@H](O)[C@@H](O)[C@H](O)[C@H](O)CO)sc2nc3sc4c(c3c(=O)n12)CCC4
result: 17.19

query: Next up: O=c1/c(=C\[C@H](O)[C@@H](O)[C@@H](O)[C@H](O)CO)sc2nc3sc4c(c3c(=O)n12)CCC4
result: 20.15

query: Next up: O=c1/c(=C\[C@@H](O)[C@@H](O)[C@H](O)[C@H](O)CO)sc2nc3sc4c(c3c(=O)n12)CCC4
result: 21.34

query: Next up: O=c1/c(=C\[C@@H](O)[C@H](O)[C@H](O)CO)sc2nc3sc4c(c3c(=O)n12)CCC4
result: 18.52

* * *

# SYSTEM_UNDER_TEST: acetylcholinesterase (AChE) (Homo sapiens)
# TEST_NAME: biochemical
# CONDITIONS_USED: mean ± SE, n = 3; read-out: AChE IC50 (µg/mL) (converted)
MEASURED_ENDPOINT: IC50 (µM)
Write the number in µM without appending the unit.

query: Dear colleague, I am looking for the recorded IC50 of the following compound: O=c1/c(=C\[C@H](O)[C@@H](O)[C@H](O)CO)sc2nc3sc4c(c3c(=O)n12)CCC4
result: 165

query: Next up: O=c1/c(=C\[C@H](O)[C@@H](O)[C@@H](O)[C@H](O)CO)sc2nc3sc4c(c3c(=O)n12)CCCC4
result: 110

query: Next up: O=c1/c(=C\[C@H](O)[C@@H](O)[C@@H](O)[C@H](O)CO)sc2nc3sc4c(c3c(=O)n12)CCC4
result: 115

query: Next up: O=c1/c(=C\[C@@H](O)[C@@H](O)[C@H](O)[C@H](O)CO)sc2nc3sc4c(c3c(=O)n12)CCC4
result: 131

query: Next up: O=c1/c(=C\[C@H](O)[C@@H](O)[C@H](O)[C@H](O)CO)sc2nc3sc4c(c3c(=O)n12)CCC4
result: 117

query: Next up: O=c1/c(=C\[C@H](O)[C@@H](O)[C@H](O)CO)sc2nc3sc4c(c3c(=O)n12)CCCC4
result: 125

query: Next up: O=c1/c(=C\[C@@H](O)[C@H](O)[C@H](O)CO)sc2nc3sc4c(c3c(=O)n12)CCCC4
result: 134

query: Next up: O=c1/c(=C\[C@@H](O)[C@H](O)[C@H](O)CO)sc2nc3sc4c(c3c(=O)n12)CCC4
result: 176
